- method.description: Cytotoxicity against human Akata cells assessed as cell viability by XTT assay
- Format: cell-based
Exercise: for every item that follows, state its recorded CC50.

Hello, I would appreciate it if you could give CC50 for each entry below.
1. Cc1cc(C)cc(Cn2cc(Nc3ccccc3)c(=O)[nH]c2=O)c1
2. O=c1[nH]c(=O)n(Cc2cccc(Cl)c2)cc1Nc1ccccc1
3. Cc1ccccc1Cn1cc(Nc2ccccc2)c(=O)[nH]c1=O

Reply:
1: 96.2 µM; 2: > 100 µM; 3: > 100 µM

----------
Exercise: for every item that follows, state its recorded pEC50.
- Test system: Human gammaherpesvirus 4
- method.description: Antiviral activity against Epstein-Barr virus infected in human Akata cells assessed as virus induced cytopathic effects by XTT assay
- Format: functional, organism-based
- condition.description: human gammaherpesvirus 4, Akata
Answers are plain numbers, as −log10 of the molar value.

Look over these answered cases.
Query: I have this compound here, Cc1ccccc1Cn1cc(Nc2ccccc2)c(=O)[nH]c1=O , and I need its recorded pEC50.
Reply: 4.92

Query: I have this compound here, Cc1ccc(Nc2cn(Cc3ccc(Cl)cc3Cl)c(=O)[nH]c2=O)cc1 , and I need its recorded pEC50.
Reply: 4.36

Query: I have this compound here, O=c1[nH]c(=O)n(Cc2ccc(Cl)cc2Cl)cc1NCc1ccccc1 , and I need its recorded pEC50.
Reply: 4.40

Query: I have this compound here, O=c1[nH]c(=O)n(Cc2cccc(Cl)c2)cc1Nc1ccccc1 , and I need its recorded pEC50.
Reply: 4.70

Hello, I would appreciate it if you could give pEC50 for each entry below.
1. Cc1cccc(Cn2cc(Nc3ccccc3)c(=O)[nH]c2=O)c1
2. O=c1[nH]c(=O)n(Cc2ccc(Cl)cc2Cl)cc1NCCc1ccccc1

Reply:
1: 4.00; 2: 4.17

Hello, I would appreciate it if you could give pEC50 for each entry below.
1. O=c1[nH]c(=O)n([C@H]2CO[C@@H](CO)O2)cc1I
2. O=c1[nH]c(=O)n(Cc2cccc(Oc3ccccc3)c2)cc1Nc1ccccc1

Reply:
1: 7.48; 2: 5.64

----------
- method.description: Cytotoxicity against human CEM-SS cells assessed as cell viability by XTT assay
- Assay type: cell-based
reported.property: CC50

Look over these answered cases.
Query: I have this compound here, Cc1cn([C@H]2C[C@H](N=[N+]=[N-])[C@@H](CO)O2)c(=O)[nH]c1=O , and I need its recorded CC50.
Reply: > 1 µM

Query: I have this compound here, O=c1[nH]c(=O)n(Cc2ccc(Cl)cc2Cl)cc1NCc1ccccc1 , and I need its recorded CC50.
Reply: > 100 µM

Query: I have this compound here, O=c1[nH]c(=O)n(Cc2ccc(Cl)cc2Cl)cc1NCCc1ccccc1 , and I need its recorded CC50.
Reply: > 100 µM

Query: I have this compound here, O=c1[nH]c(=O)n(Cc2cccc(Oc3ccccc3)c2)cc1Nc1ccccc1 , and I need its recorded CC50.
Reply: > 100 µM

Query: I have this compound here, Cc1cc(C)cc(Cn2cc(Nc3ccccc3)c(=O)[nH]c2=O)c1 , and I need its recorded CC50.
Reply: > 200 µM

Hello, I would appreciate it if you could give CC50 for each entry below.
1. Cc1cccc(Cn2cc(Nc3ccccc3)c(=O)[nH]c2=O)c1
2. Cc1ccccc1Cn1cc(Nc2ccccc2)c(=O)[nH]c1=O
3. Cc1cc(C)cc(Cn2cc(NCc3ccccc3)c(=O)[nH]c2=O)c1

Reply:
1: > 200 µM; 2: > 100 µM; 3: 168 µM

Query: I have this compound here, O=c1[nH]c(=O)n(Cc2ccccc2)cc1Nc1ccccc1 , and I need its recorded CC50.
Reply: > 100 µM
